Measured values drawn from the supplement of paper PMC10567573 for this set.

Listing: protein stability index of selected variants
B1: ATL3 (parent)
chain: QELEEEIKELYENFCKHNGSKNVF

- Variants of: B1
- protocol.notes: protein stability index of a GFP-peptide fusion (GPS, HEK-293T) (PSI 1-6); higher = more stable;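 also: lentivirally expressed fusions sorted by FACS into six bins by GFP to DsRed ratio, PSI derived from sequencing read proportions per bin multiplied by bin number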
- condition.parameters: c terminus: a fixed tail appended
Answer with the value's number alone.

1. E12S | 3.13
2. E6P | 3.28
3. F14S | 4.58
4. F14W | 2.58
5. H17E | 2.51

What protein stability index value was documented for this variant, `F14M` ?
4.06

What protein stability index value was documented for this variant, `H17N` ?
2.51

What protein stability index value was documented for this variant, `I7T` ?
4.24

What protein stability index value was documented for this variant, `N22Y` ?
2.05
